// data source = patent US10689354B2

target: human androgen receptor (Homo sapiens, UniProt P10275); construct: expressed in transfected cells; host or cells: HEK293; experiment: Reporter assay of an androgen receptor responsive sequence (luciferase, transiently transfected HEK293 cells); type: cell-based; settings: 24 hours incubation, relative to activity of 100 nM DHT, read-out: AR transcriptive activity (pEC50) (converted)
Sequence (P10275 whole entry): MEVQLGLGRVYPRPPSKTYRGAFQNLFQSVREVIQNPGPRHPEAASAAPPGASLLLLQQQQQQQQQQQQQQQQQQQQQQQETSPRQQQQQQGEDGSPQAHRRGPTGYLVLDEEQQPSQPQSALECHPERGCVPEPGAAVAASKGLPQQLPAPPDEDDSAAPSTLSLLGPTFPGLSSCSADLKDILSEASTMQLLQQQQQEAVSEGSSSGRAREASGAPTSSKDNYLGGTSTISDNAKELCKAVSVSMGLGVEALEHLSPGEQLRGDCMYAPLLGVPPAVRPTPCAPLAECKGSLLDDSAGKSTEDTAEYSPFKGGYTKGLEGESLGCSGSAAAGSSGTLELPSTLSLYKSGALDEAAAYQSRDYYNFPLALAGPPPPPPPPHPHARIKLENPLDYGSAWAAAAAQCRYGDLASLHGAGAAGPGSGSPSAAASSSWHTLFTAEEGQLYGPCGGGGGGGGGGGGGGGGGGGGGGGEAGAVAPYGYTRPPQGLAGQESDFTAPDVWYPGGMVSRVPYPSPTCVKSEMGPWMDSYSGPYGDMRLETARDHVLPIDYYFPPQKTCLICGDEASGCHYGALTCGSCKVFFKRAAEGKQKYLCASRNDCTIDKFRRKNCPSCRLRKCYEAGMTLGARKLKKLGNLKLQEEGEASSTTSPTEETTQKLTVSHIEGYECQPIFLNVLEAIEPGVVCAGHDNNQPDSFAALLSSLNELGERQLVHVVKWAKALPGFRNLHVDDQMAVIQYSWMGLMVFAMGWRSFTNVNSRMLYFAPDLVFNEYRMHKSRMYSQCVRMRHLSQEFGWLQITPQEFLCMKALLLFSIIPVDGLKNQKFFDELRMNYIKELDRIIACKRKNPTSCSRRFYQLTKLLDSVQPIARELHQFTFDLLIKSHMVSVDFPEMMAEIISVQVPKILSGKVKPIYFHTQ
The label Criterion met is reserved for EC50 strictly under 600 nM; Criterion not met covers values equal to or above it.

Prompt: For this compound, is EC50 lower than 600 nM? Cc1sc(N(Cc2ccc(OCC(F)F)cc2)c2ccc(C#N)cc2)nc1C(=O)NS(C)(=O)=O
Response: Criterion met

Prompt: For this compound, is EC50 lower than 600 nM? COc1ccc(CN(c2ccc(C#N)cc2)c2nc(C(=O)NS(C)(=O)=O)c(C)s2)nc1
Response: Criterion met

Prompt: For this compound, is EC50 lower than 600 nM? Cc1sc(N(Cc2ccccc2)c2ccc(C#N)cc2)nc1C(=O)NS(=O)(=O)Cc1cccc(Cl)c1
Response: Criterion not met

Prompt: For this compound, is EC50 lower than 600 nM? Cc1sc(N(Cc2cc(F)cc(F)c2F)c2ccc(C#N)cc2)nc1C(=O)NS(C)(=O)=O
Response: Criterion met

Prompt: For this compound, is EC50 lower than 600 nM? Cc1sc(N(Cc2cccc(N)c2)c2ccc(C#N)cc2)nc1C(=O)NS(C)(=O)=O
Response: Criterion not met

Prompt: For this compound, is EC50 lower than 600 nM? Cc1oc(N(CCc2ccc(C#N)cc2)Cc2ccc(Cl)cc2)nc1C(=O)NS(C)(=O)=O
Response: Criterion met

Prompt: For this compound, is EC50 lower than 600 nM? Cc1sc(N(CCc2ccccc2Cl)c2ccc(C#N)cc2)nc1C(=O)NS(C)(=O)=O
Response: Criterion not met

Prompt: For this compound, is EC50 lower than 600 nM? COCCCS(=O)(=O)NC(=O)c1nc(N(Cc2ccc(F)cc2Cl)c2ccc(C#N)cc2)sc1C
Response: Criterion not met

Prompt: For this compound, is EC50 lower than 600 nM? Cc1sc(N(Cc2ccc(-c3ccccc3F)cn2)c2ccc(C#N)cc2)nc1C(=O)NS(C)(=O)=O
Response: Criterion not met

Prompt: For this compound, is EC50 lower than 600 nM? Cc1sc(N(CCc2ccccc2F)c2ccc(C#N)cc2)nc1C(=O)NS(C)(=O)=O
Response: Criterion not met

Prompt: For this compound, is EC50 lower than 600 nM? CS(=O)(=O)NC(=O)c1nc(N(Cc2ccc(Cl)cn2)c2ccc(C#N)cc2)sc1C1CC1
Response: Criterion not met

Prompt: For this compound, is EC50 lower than 600 nM? COCCCS(=O)(=O)NC(=O)c1nc(N(Cc2ccc(OC(F)F)cc2F)c2ccc(C#N)cc2)sc1C
Response: Criterion met

Prompt: For this compound, is EC50 lower than 600 nM? CCS(=O)(=O)NC(=O)c1nc(N(CCc2ccc(Cl)cc2)Cc2ccc(Cl)cc2)sc1C
Response: Criterion met

Prompt: For this compound, is EC50 lower than 600 nM? CCOC(=O)CS(=O)(=O)NC(=O)c1nc(N(Cc2ccccc2)c2ccc(C#N)cc2)sc1C
Response: Criterion met

Prompt: For this compound, is EC50 lower than 600 nM? Cc1sc(N(CCc2ccc(C#N)cc2)Cc2ccc(Cl)cc2)nc1C(=O)NS(=O)(=O)C1CC1
Response: Criterion not met

Prompt: For this compound, is EC50 lower than 600 nM? COCCCS(=O)(=O)NC(=O)c1nc(N(Cc2ccc(OC(F)F)cc2)c2ccc(C#N)cc2)sc1C1CC1
Response: Criterion not met

Prompt: For this compound, is EC50 lower than 600 nM? Cc1sc(N(Cc2cccc(-n3ccnc3)c2)c2ccc(C#N)cc2)nc1C(=O)NS(C)(=O)=O
Response: Criterion not met

Prompt: For this compound, is EC50 lower than 600 nM? Cc1sc(N(Cc2ccc(OC3CCCC3)cc2)c2ccc(C#N)cc2)nc1C(=O)NS(C)(=O)=O
Response: Criterion met

Prompt: For this compound, is EC50 lower than 600 nM? Cc1oc(N(Cc2ccc3ncsc3c2)c2ccc(C#N)cc2)nc1C(=O)NS(C)(=O)=O
Response: Criterion not met

Prompt: For this compound, is EC50 lower than 600 nM? Cc1sc(N(Cc2ccc(Cl)cc2)[C@H]2C[C@@H]2c2ccccc2)nc1C(=O)NS(C)(=O)=O (racemic)
Response: Criterion not met

Prompt: For this compound, is EC50 lower than 600 nM? Cc1sc(N(Cc2ccccc2)c2ccc(OC(F)(F)F)cc2)nc1C(=O)NS(C)(=O)=O
Response: Criterion not met

Prompt: For this compound, is EC50 lower than 600 nM? Cc1sc(N(CCCOc2ccccc2)c2ccc(C#N)cc2)nc1C(=O)NS(C)(=O)=O
Response: Criterion not met

Prompt: For this compound, is EC50 lower than 600 nM? Cc1sc(N(Cc2ccc(OC(F)(F)F)cc2)c2ccc(C#N)cc2)nc1C(=O)NS(=O)(=O)Cc1ccncc1
Response: Criterion met

Prompt: For this compound, is EC50 lower than 600 nM? Cc1oc(N(CCc2ccc(Cl)cc2)Cc2ccc(Cl)cn2)nc1C(=O)NS(C)(=O)=O
Response: Criterion not met

Prompt: For this compound, is EC50 lower than 600 nM? COc1ccccc1CN(c1ccc(C#N)cc1)c1nc(C(=O)NS(C)(=O)=O)c(Cl)s1
Response: Criterion met

Prompt: For this compound, is EC50 lower than 600 nM? CS(=O)(=O)NC(=O)c1nc(N(Cc2cccc(Cl)c2)c2ccc(C#N)cc2)sc1Br
Response: Criterion met

Prompt: For this compound, is EC50 lower than 600 nM? Cc1sc(N(CCc2ccsc2)Cc2ccccc2)nc1C(=O)NS(C)(=O)=O
Response: Criterion not met

Prompt: For this compound, is EC50 lower than 600 nM? Cc1sc(N(CCc2ccc(Cl)cc2)CC2CCCCC2)nc1C(=O)NS(C)(=O)=O
Response: Criterion not met

Prompt: For this compound, is EC50 lower than 600 nM? Cc1sc(N(Cc2ccccc2)c2ccc(C#N)cc2)nc1C(=O)NS(=O)(=O)C(F)(F)F
Response: Criterion not met

Prompt: For this compound, is EC50 lower than 600 nM? Cc1sc(N(CCc2ccc(C#N)cc2)CC2CCCCC2)nc1C(=O)NS(C)(=O)=O
Response: Criterion not met

Prompt: For this compound, is EC50 lower than 600 nM? COc1ccc(CN(c2ccc(C#N)cc2)c2nc(C(=O)NS(C)(=O)=O)c(C)s2)cc1
Response: Criterion met
